Target: Heat shock protein SSA1 (Saccharomyces cerevisiae) (UniProt P10591)
Assay: Effect on yeast Hsp70 Ssa1 ATPase activity assessed as fold change in Kcat at 100 uM relative to control
observedProperty: fold change (FC)
Enter a number only.

Lookup: // fold change (FC) lookup, key: CC1=C(C(=O)OCc2ccccc2)C(c2ccc([N+](=O)[O-])cc2)NC(=O)N1CCCC(=O)N(CCN1CCOCC1)C(C(=O)NC(C)(C)C)c1ccc(-c2ccccc2)cc1 (configuration not stated)
Found: 1.2

----------
Tested on: Plasmodium falciparum
Experiment: Effect on Plasmodium falciparum Hsp70 ATPase activity assessed as fold change in Kcat at 100 uM in presence of J-domain containing yeast HlJ1 co-chaperone relative to control
observedProperty: fold change (FC)
Enter a number only.

See these solved cases before continuing.
{"compound": "COC(=O)c1cc(-c2ccccc2)n(CCNC(=O)CCCCCN2C(=O)NC(c3ccc(-c4ccccc4)cc3)C(C(=O)OCc3ccccc3)=C2C)c1C (centres undefined)", "testedTarget": "Plasmodium falciparum", "fold change (FC)": -1.1}
{"compound": "CCCCCCN(C(=O)CCCCCN1C(=O)NC(c2ccc(-c3ccccc3)cc2)C(C(=O)OCc2ccccc2)=C1C)C(C(=O)NCCCC)C1CCCCC1 (centres undefined)", "testedTarget": "Plasmodium falciparum", "fold change (FC)": -1.5}
{"compound": "CCCCNC(=O)C(c1ccc(-c2ccccc2)cc1)N(CCN1CCOCC1)C(=O)CCCCCN1C(=O)NC(c2ccc([N+](=O)[O-])cc2)C(C(=O)OCc2ccccc2)=C1C (centres undefined)", "testedTarget": "Plasmodium falciparum", "fold change (FC)": -1.3}

Lookup: Provide value of fold change (FC) for this record tested with Plasmodium falciparum: CCOC(=O)C1=C(C)N(Cc2ccccc2)C(=O)NC1c1ccccc1OS(=O)(=O)c1ccccc1[N+](=O)[O-] (centres undefined)
Found: 1.4

Lookup: Provide value of fold change (FC) for this record tested with Plasmodium falciparum: CC1=C(C(=O)OCc2ccccc2)C(c2ccc([N+](=O)[O-])cc2)NC(=O)N1CCCC(=O)N(CCN1CCOCC1)C(C(=O)NC(C)(C)C)c1ccc(-c2ccccc2)cc1 (centres undefined)
Found: 1.4

Lookup: Provide value of fold change (FC) for this record tested with Plasmodium falciparum: CCOC(=O)C1=C(C)N(CCCC(=O)NCCn2c(-c3ccccc3)cc(C(=O)OC)c2C)C(=O)NC1c1ccc([N+](=O)[O-])cc1 (centres undefined)
Found: 1.5

Lookup: Provide value of fold change (FC) for this record tested with Plasmodium falciparum: CCOC(=O)C1=C(C)N(CCCCCC(=O)O)C(=O)NC1c1cccc([N+](=O)[O-])c1 (centres undefined)
Found: -1.1

Lookup: Provide value of fold change (FC) for this record tested with Plasmodium falciparum: CCCCN1C(=O)NC(c2ccc(OC)cc2)C(C(=O)OCc2ccccc2)=C1C (centres undefined)
Found: -1.1

Lookup: Provide value of fold change (FC) for this record tested with Plasmodium falciparum: COC(=O)C1=C(Cc2ccccc2)NC(=O)NC1c1ccc2ccccc2c1 (centres undefined)
Found: -1.2

----------
Molecular target: Heat shock protein SSA1 (Saccharomyces cerevisiae S288c) (UniProt P10591)
Sequence (P10591 whole entry): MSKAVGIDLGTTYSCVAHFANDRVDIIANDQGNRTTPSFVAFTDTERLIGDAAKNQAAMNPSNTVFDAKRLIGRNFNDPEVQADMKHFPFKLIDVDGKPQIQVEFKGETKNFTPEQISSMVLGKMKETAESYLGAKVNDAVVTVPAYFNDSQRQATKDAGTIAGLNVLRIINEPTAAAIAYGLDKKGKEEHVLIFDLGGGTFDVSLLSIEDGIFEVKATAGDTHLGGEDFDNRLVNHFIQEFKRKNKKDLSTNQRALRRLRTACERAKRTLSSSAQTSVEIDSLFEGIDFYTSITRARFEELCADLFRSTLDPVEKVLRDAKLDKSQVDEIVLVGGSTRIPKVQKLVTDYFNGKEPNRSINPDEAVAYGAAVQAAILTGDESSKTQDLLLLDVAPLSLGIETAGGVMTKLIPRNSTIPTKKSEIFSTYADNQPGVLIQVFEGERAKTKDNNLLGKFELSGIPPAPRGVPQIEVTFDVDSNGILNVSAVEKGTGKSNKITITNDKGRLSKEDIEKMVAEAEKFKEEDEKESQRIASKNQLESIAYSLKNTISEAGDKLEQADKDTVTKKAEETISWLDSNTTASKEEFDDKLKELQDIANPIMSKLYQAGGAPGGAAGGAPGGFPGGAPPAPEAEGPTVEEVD
Assay: Effect on Saccharomyces cerevisiae Ssa1 ATPase activity assessed as fold change in Kcat at 100 uM in presence of J-domain containing yeast HlJ1 co-chaperone relative to control
Recorded fold change (FC) values for a group of compounds are listed next.
Enter a number only.

{"compound": "CCOC(=O)C1=C(C)N(CCCCCC(=O)O)C(=O)NC1c1cccc([N+](=O)[O-])c1 (centres undefined)", "fold change (FC)": 1}
{"compound": "CCCCNC(=O)C(c1ccc(-c2ccccc2)cc1)N(CCN1CCOCC1)C(=O)CCCCCN1C(=O)NC(c2ccc([N+](=O)[O-])cc2)C(C(=O)OCc2ccccc2)=C1C (centres undefined)", "fold change (FC)": -1.1}
{"compound": "CCOC(=O)C1=C(C)N(Cc2ccccc2)C(=O)NC1c1ccccc1OS(=O)(=O)c1ccccc1[N+](=O)[O-] (centres undefined)", "fold change (FC)": 1}
{"compound": "COC(=O)C1=C(Cc2ccccc2)NC(=O)NC1c1ccc2ccccc2c1 (centres undefined)", "fold change (FC)": -1.2}

Lookup: // fold change (FC) lookup, key: COC(=O)c1cc(-c2ccccc2)n(CCNC(=O)CCCCCN2C(=O)NC(c3ccc(-c4ccccc4)cc3)C(C(=O)OCc3ccccc3)=C2C)c1C (centres undefined)
Found: -6.5

Lookup: // fold change (FC) lookup, key: CCCCN1C(=O)NC(c2ccc(OC)cc2)C(C(=O)OCc2ccccc2)=C1C (centres undefined)
Found: 1

Lookup: // fold change (FC) lookup, key: CC1=C(C(=O)OCc2ccccc2)C(c2ccc([N+](=O)[O-])cc2)NC(=O)N1CCCC(=O)N(CCN1CCOCC1)C(C(=O)NC(C)(C)C)c1ccc(-c2ccccc2)cc1 (centres undefined)
Found: 1

Lookup: // fold change (FC) lookup, key: CCOC(=O)C1=C(C)N(CCCC(=O)NCCn2c(-c3ccccc3)cc(C(=O)OC)c2C)C(=O)NC1c1ccc([N+](=O)[O-])cc1 (centres undefined)
Found: -1.6

Lookup: // fold change (FC) lookup, key: CCCCCCN(C(=O)CCCCCN1C(=O)NC(c2ccc(-c3ccccc3)cc2)C(C(=O)OCc2ccccc2)=C1C)C(C(=O)NCCCC)C1CCCCC1 (centres undefined)
Found: 1.2
